Each recorded value in this set is attributed to the Human Domainome abundance scans (Beltran et al. 2025).

Readings of abundance fitness for the listed variants
B1: POU domain, class 3, transcription factor 2, residues 262 to 338; numbered along this chain, P20265 (parent)
chain: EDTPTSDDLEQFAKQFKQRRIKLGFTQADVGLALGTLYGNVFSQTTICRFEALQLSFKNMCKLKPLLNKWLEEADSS

Variants of: B1
Assay: abundance fitness (aPCA) (normalised: wild type 0, dead -1); higher = more abundant; growth selection in yeast, the domain comes from the species named
Conditions: Homo sapiens
Test Readout: abundance fitness

{"Biopolymer Sequence": "EDTPTSDDLEQFAKQFKQRRIKLGFTQADVGLALGTLYGNVFSQTTICRFEALQLCFKNMCKLKPLLNKWLEEADSS [S56C]", "Test Readout": "abundance fitness", "Meas Value": -0.303}
{"Biopolymer Sequence": "EDTPTSDDLEQFAKQFKQRRIKLGFTQADVGLALGTLYGNVFMQTTICRFEALQLSFKNMCKLKPLLNKWLEEADSS [S43M]", "Test Readout": "abundance fitness", "Meas Value": -0.569}
{"Biopolymer Sequence": "EDTPTSDDLEQFAKQFKQRRIKLGFTQADVGLALGTLYGNVFSQTTICRFEALQLSFKNMCKLKPLLNKWLENADSS [E73N]", "Test Readout": "abundance fitness", "Meas Value": -0.192}
{"Biopolymer Sequence": "EDTPTSDDLEQFAKQFKQRRIRLGFTQADVGLALGTLYGNVFSQTTICRFEALQLSFKNMCKLKPLLNKWLEEADSS [K22R]", "Test Readout": "abundance fitness", "Meas Value": -0.054}
{"Biopolymer Sequence": "EDTPTSDDLEQFAKQFKQRRIKLGFTQADVGLALGTLYGNVFGQTTICRFEALQLSFKNMCKLKPLLNKWLEEADSS [S43G]", "Test Readout": "abundance fitness", "Meas Value": -0.12}
{"Biopolymer Sequence": "EDTPTSDDLEQFAKQFKQRRIKLGFTQADVGLALGTLYGNVFSQTTGCRFEALQLSFKNMCKLKPLLNKWLEEADSS [I47G]", "Test Readout": "abundance fitness", "Meas Value": -1}
{"Biopolymer Sequence": "EDTPTSDDLEQFAKQFKQRRIKLGFTQADVGLALGTLYGNVFSQTTICRFEALQLSFKNMCKLKPLLNKWLEEADMS [S76M]", "Test Readout": "abundance fitness", "Meas Value": -0.021}
{"Biopolymer Sequence": "EDTPTSDDLEQFAKQFKQRRIKLGFTQADVGLALWTLYGNVFSQTTICRFEALQLSFKNMCKLKPLLNKWLEEADSS [G35W]", "Test Readout": "abundance fitness", "Meas Value": -0.239}
{"Biopolymer Sequence": "EDTPTSDDLEQFHKQFKQRRIKLGFTQADVGLALGTLYGNVFSQTTICRFEALQLSFKNMCKLKPLLNKWLEEADSS [A13H]", "Test Readout": "abundance fitness", "Meas Value": -0.544}
{"Biopolymer Sequence": "EDTPTSDDLEQFAKQFKQRRIKLGFTQADVGLALGTLYGNVFSQTTICRFEALQLSFKNMCKLKPLGNKWLEEADSS [L67G]", "Test Readout": "abundance fitness", "Meas Value": -1.05}
{"Biopolymer Sequence": "EDTPTSDDLEQQAKQFKQRRIKLGFTQADVGLALGTLYGNVFSQTTICRFEALQLSFKNMCKLKPLLNKWLEEADSS [F12Q]", "Test Readout": "abundance fitness", "Meas Value": -0.828}
{"Biopolymer Sequence": "EDTPTSDDLEQFAKQFKQRRIKLGETQADVGLALGTLYGNVFSQTTICRFEALQLSFKNMCKLKPLLNKWLEEADSS [F25E]", "Test Readout": "abundance fitness", "Meas Value": -0.773}
{"Biopolymer Sequence": "EDTPTSDDLEQFAKQFKQRRIKLGFTQADVGLALGTLYGNVFSQTTICRFEALQLSFKNMCKLKPLLNKSLEEADSS [W70S]", "Test Readout": "abundance fitness", "Meas Value": -0.742}
{"Biopolymer Sequence": "EDTPTSDDLEQFAKQFKQRRIKLGFTQADVGLALGTLYGNVFSQTTICRFEALQLSFKNMCKLKPLLNKWLEEADSR [S77R]", "Test Readout": "abundance fitness", "Meas Value": 0.054}
{"Biopolymer Sequence": "EDTPTSDDLEQFAKQFKQRRIKLGFTQADVGLALGTLYGNVFSQTTICRFEALQLSFKNMCKLKPELNKWLEEADSS [L66E]", "Test Readout": "abundance fitness", "Meas Value": -0.637}
{"Biopolymer Sequence": "EDTPTSDDLEQFAKQFKQRRIKLGFTQADVGLALGTLYGNVFSQTTICRFEALQLSFKNMCKLKPNLNKWLEEADSS [L66N]", "Test Readout": "abundance fitness", "Meas Value": -0.504}
{"Biopolymer Sequence": "EDTPTSDDLEQFAKQFKMRRIKLGFTQADVGLALGTLYGNVFSQTTICRFEALQLSFKNMCKLKPLLNKWLEEADSS [Q18M]", "Test Readout": "abundance fitness", "Meas Value": -0.089}
{"Biopolymer Sequence": "EDTPTSDDLEQFAKQFKQRRIKLGFTQADVGLALGTLYGNVFSQTTICRFEALQLSFKNMCKLKPLLNKWLEYADSS [E73Y]", "Test Readout": "abundance fitness", "Meas Value": 0.129}
{"Biopolymer Sequence": "EDTPTSDDLEQFAKQFKQRRIMLGFTQADVGLALGTLYGNVFSQTTICRFEALQLSFKNMCKLKPLLNKWLEEADSS [K22M]", "Test Readout": "abundance fitness", "Meas Value": -0.073}
{"Biopolymer Sequence": "EDTPTSDDLEQFAKQFKQRRIKLGFTQADVGLALGTLYGNVFSQTTICRFEALQLSFKNMCKLKPLLAKWLEEADSS [N68A]", "Test Readout": "abundance fitness", "Meas Value": -0.007}
{"Biopolymer Sequence": "EDTPTSDDLEQFAKQFKQRRIKLGFTQADVGLALGTLYGNVFSQTTICRFEALQLSFKNMCKLKPLLNKWLEEWDSS [A74W]", "Test Readout": "abundance fitness", "Meas Value": -0.172}
{"Biopolymer Sequence": "EDTPTSDDLEQFAKQFKQERIKLGFTQADVGLALGTLYGNVFSQTTICRFEALQLSFKNMCKLKPLLNKWLEEADSS [R19E]", "Test Readout": "abundance fitness", "Meas Value": -0.116}
